// self-cleavage kobs at 2500 uM GlcN6P lookup, one value per entry
B1: glmS ribozyme (parent)
chain: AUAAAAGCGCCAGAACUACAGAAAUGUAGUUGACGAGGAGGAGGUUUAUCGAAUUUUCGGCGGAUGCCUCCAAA

- Variants of: B1
- assayMethodText: self-cleavage kobs at 2500 uM GlcN6P; higher = faster cleavage; RNA array
- runParameters: with glucosamine-6-phosphate
Variants at the floor of the assay were thinned out.
Output spec: scalar in s⁻¹, unitless text.

Q: Fill in the blank: the reported self-cleavage kobs at 2500 uM GlcN6P of AUAAAAGCGCCAUAACUACAGAAAUGUAUUUGACGAGGAGGAGGUUUAUCGAAGUUUCGGCGGAUGCCUCCAAA [G13U G29U U54G] is ____.
Result: 8.58e-05

Q: Field request: self-cleavage kobs at 2500 uM GlcN6P | item: AUAAAAGCGCCAGAACUACAGAAAUGUAGUUGACGAGGAGCAGGUUAAUCGAAUUUUCGGCGGAUGCCUCCAAA [G41C U47A]
Result: 0.000134

Q: Request the reported self-cleavage kobs at 2500 uM GlcN6P associated with AUAAAAGCGCCAGAACUACAGAAAUGUAGUUGACGAGGGGUGGGUUUAUCGAAUUUUCGGCGGAUGCCUCCAAA [A39G G41U A42G]
Result: 0.000339

Q: Query: self-cleavage kobs at 2500 uM GlcN6P; subject: AUAAAAGCGCCAGGACUACAGAAAUGUAGUUGACGAGGAGGAGAUUUAUCGAAUUUUCGGCGGAUGCCUCCAAA [A14G G44A]
Result: 0.00104

Q: Requested read-out: self-cleavage kobs at 2500 uM GlcN6P. Entry: AUAAAAGCGCCAGGACUACAGAAAUGUAGUUGACGAGGAGGAGGUUUAUCGAAUUCUCGGCGGAUGCCUCCAAA [A14G U56C]
Result: 0.0088

Further cases:
Q: Item under review: AUAAAAGCGCCAGAACUACAGAAAUGUAGUUGACGAGGGGGAGGUUUAUCGAAUUCUCGGCGGAUGCCUCCAAA [A39G U56C] . Reported self-cleavage kobs at 2500 uM GlcN6P?
Result: 0.0039

Q: Please look up its self-cleavage kobs at 2500 uM GlcN6P: AUAAAGGCGCCAGAACUACAGAAAUGUAGUUGACGAGGAGGAGGUUGAUCGAAUUUUCGGCGGAUGCCUCCAAA [A6G U47G]
Result: 6.1e-05
